Just for reference, the supplement of paper PMC13380429 is where these values come from.

For each record, write down the corresponding inhibition of SARS-CoV-2 cytopathic effect.
- Tested on: Vero E6 infected with SARS-CoV-2
- protocol: inhibition of SARS-CoV-2 cytopathic effect; higher = more antiviral protection, active = above 15
- study.conditions: 100 nM; 48 h
Numbers only, in %.

[[record]]
compound = "CC(C)C[C@H](NC(=O)OCc1ccccc1)C(=O)N[C@@H](C[C@@H]1CCNC1=O)C(O)S(=O)(=O)O (stereo partly drawn) [GC376 sodium]"
measurement_target = "Vero E6 infected with SARS-CoV-2"
measurement = 0.28


Please state inhibition of SARS-CoV-2 cytopathic effect for every compound in the list that follows.
1. O=C(O)C1=CCNCC1
2. CC#C[C@@H](CC(=O)O)c1ccc(OCc2cccc(-c3ccc(C(F)(F)F)cc3)c2)cc1
3. COc1cccc(/C=N/N=C/c2cccc(OC)c2)c1
4. O=c1[nH]cnc2nc[nH]c12
5. Oc1ccc2c(c1)CC[C@H](c1ccccc1)[C@@H]2c1ccc(OCCN2CCCC2)cc1
6. COC(=O)c1ccc2c(c1)nc(NC(=O)c1ccccc1)n2CCCc1ccccc1
7. CNC(=O)[C@@H](NC(=O)[C@H](CC(C)C)[C@H](O)C(=O)NO)C(C)(C)C

1: 0.98; 2: -0.33; 3: -2.17; 4: 1.76; 5: 0.8; 6: -1.28; 7: -5.18

Please state inhibition of SARS-CoV-2 cytopathic effect for every compound in the list that follows.
1. CN(CCc1ccc(Cl)c(Cl)c1)CCN1CCCC1
2. CC(=O)[C@@]1(O)CC[C@H]2[C@@H]3C[C@H](C)C4=CC(=O)C=C[C@]4(C)[C@@]3(F)[C@@H](O)C[C@@]21C
3. NCCNCCNCCN
4. OC[C@H]1O[C@@H](Oc2cc3c(O)cc(O)cc3[o+]c2-c2ccc(O)c(O)c2)[C@H](O)[C@@H](O)[C@@H]1O
5. NC(=O)CN1C=CCC(C(N)=O)=C1 [caricotamide]

1. 2
2. 0.19
3. 1.04
4. -0.34
5. 1.14

* * *

For each record, write down the corresponding morphology score.
- Test system: Vero E6 infected with SARS-CoV-2
- protocol: morphology score (similarity to uninfected cells); higher = more like uninfected cells
- study.conditions: 24 h
Structures can show the parent of a compound that is named as a salt.
One number for each entry.

Worked examples follow.
[[record]]
compound = "CO/N=C(\\C(=O)N[C@@H]1C(=O)N2C(C(=O)O)=C(Cn3ccc(=N)n3CCO)CS[C@H]12)c1csc(N)n1 [Cefoselis sulfate] (10 µM)"
measurement = 0.115

[[record]]
compound = "COc1ccc(-c2nc(-c3ccc(-c4cccc(Cl)c4)o3)[nH]c2-c2ccc(OC)cc2)cc1 [neurodazine] (10 µM)"
measurement = 0.198

[[record]]
compound = "O=C(Nc1cccnc1)c1cc(-c2ccnc(F)c2)ccc1OCc1ccccc1 (10 µM)"
measurement = -0.0646

[[record]]
compound = "Cc1nnc2ccc(-c3cccc(C(F)(F)F)c3)nn12 (10 µM)"
measurement = -0.183

[[record]]
compound = "C[C@]12CCC(=O)C=C1CC[C@@H]1[C@@H]2[C@@H](O)C[C@@]2(C)[C@H]1CC[C@]2(O)C(=O)COP(=O)(O)O [hydrocortisone-phosphate] (10 µM)"
measurement = -0.00553


Please state morphology score for every compound in the list that follows.
1. C[C@@H]1CCC[C@H](C)N1NC(=O)c1ccc(Cl)c(S(N)(=O)=O)c1 [clopamide] (10 µM)
2. CCCCCCOC(=O)CCC(=O)CN [hexaminolevulinate] (10 µM)

[-0.0797, 0.0924]

* * *

- Tested on: Vero E6 infected with SARS-CoV-2
- protocol: inhibition of SARS-CoV-2 cytopathic effect; higher = more antiviral protection, active = above 15
- study.conditions: 1 nM; 48 h
assay.readout: inhibition of SARS-CoV-2 cytopathic effect (%)
One number for each entry, in %.

[[record]]
molecule = "N[C@@H]1[C@H]2CN(c3nc4c(cc3F)c(=O)c(C(=O)O)cn4-c3ccc(F)cc3F)C[C@@H]12"
measurement_target = "Vero E6 infected with SARS-CoV-2"
u = "%"
measurement = -8.03

[[record]]
molecule = "C[C@H]1C[C@@H]2[C@H]([C@@H](O)C[C@@]3(C)[C@H]2CC[C@]3(O)C(=O)COC(=O)CCC(=O)O)[C@@]2(C)C=CC(=O)C=C12 [methylprednisolone-sodium-succinate]"
measurement_target = "Vero E6 infected with SARS-CoV-2"
u = "%"
measurement = -0.2

[[record]]
molecule = "Oc1c(Cl)cc(Cl)c(Cl)c1Cc1c(O)c(Cl)cc(Cl)c1Cl"
measurement_target = "Vero E6 infected with SARS-CoV-2"
u = "%"
measurement = 0.56

[[record]]
molecule = "CC1OC2(CS1)CN1CCC2CC1 (configuration not stated)"
measurement_target = "Vero E6 infected with SARS-CoV-2"
u = "%"
measurement = -0.26


Please state inhibition of SARS-CoV-2 cytopathic effect for every molecule in the list that follows.
1. CCn1c(=O)c(-c2ccc(Cl)cc2Cl)cc2cnc(Nc3ccc(N4CCNCC4)c(F)c3)nc21
2. O=C(O)c1cc2ccccc2s1
3. COc1cc(/C=C/C(N)=O)cc(OC)c1OC [cintriamide]

1: -1.29; 2: -0.94; 3: -2.6

Please state inhibition of SARS-CoV-2 cytopathic effect for every molecule in the list that follows.
1. Cc1cc(OCc2nc(-c3ccccc3Cl)cs2)ccc1OCC(=O)O
2. O=C(O)c1ccc(N2N=C(Cc3ccccc3)/C(=C\c3ccc(-c4ccccc4F)o3)C2=O)cc1

1. -0.13
2. -0.59

Please state inhibition of SARS-CoV-2 cytopathic effect for every molecule in the list that follows.
1. CN(C)CCN(C)CCc1ccc(Cl)c(Cl)c1
2. Cc1ncc(Cl)cc1NCc1ccc(C(=O)N[C@@H](CC2CCCC2)C(=O)NC2CC2)s1
3. COc1ccc(-c2cc(C(F)F)nn2-c2ccc(S(N)(=O)=O)cc2)cc1F

1. -3
2. 2.43
3. 2.3

* * *

- Test system: Vero E6 infected with SARS-CoV-2
- protocol: morphology score (similarity to uninfected cells); higher = more like uninfected cells
- study.conditions: 24 h
Record T whenever morphology score is at 0.1 or higher; record F when lower.

These recorded examples may help you get a feel for the data.
[[record]]
molecule = "CCC(C/C=C/c1ccccc1)(c1ccccc1)N(C)CC1CC1 (stereo not given) [igmesine] (10 µM)"
measurement_target = "Vero E6 infected with SARS-CoV-2"
discrete_label = "T"

[[record]]
molecule = "COc1ccc(Cc2cnc(N)nc2N)cc1OC [diaveridine] (10 µM)"
measurement_target = "Vero E6 infected with SARS-CoV-2"
discrete_label = "T"

[[record]]
molecule = "CN1C(CCl)Nc2cc(Cl)c(S(N)(=O)=O)cc2S1(=O)=O (stereo not given) [methyclothiazide] (10 µM)"
measurement_target = "Vero E6 infected with SARS-CoV-2"
discrete_label = "F"

[[record]]
molecule = "COc1ccc(C(=O)c2c(C)n(CCN3CCOCC3)c3ccccc23)cc1 [pravadoline] (10 µM)"
measurement_target = "Vero E6 infected with SARS-CoV-2"
discrete_label = "F"

[[record]]
molecule = "CC(CN1c2ccccc2Sc2ccccc21)N(C)C (stereo not given) [promethazine] (10 µM)"
measurement_target = "Vero E6 infected with SARS-CoV-2"
discrete_label = "T"


Please tell me: is the molecule NS(=O)(=O)c1cc2c(cc1Cl)NC(C(Cl)Cl)NS2(=O)=O (stereo not given) [trichlormethiazide] (10 µM) at or over 0.1 in terms of morphology score?
F

Please tell me: is the molecule C[C@]12CC[C@@H]3c4ccc(OS(=O)(=O)O)cc4CC[C@H]3[C@@H]1CCC2=O [estropipate] (10 µM) at or over 0.1 in terms of morphology score?
T

Please tell me: is the molecule Cc1cc(CCCOc2c(C)cc(-c3noc(C(F)(F)F)n3)cc2C)on1 [pleconaril] (10 µM) at or over 0.1 in terms of morphology score?
F

Please tell me: is the molecule O=C(Cn1c(=O)sc2ccc(Cl)cc21)N1CCN(CCO)CC1 [tiaramide] (10 µM) at or over 0.1 in terms of morphology score?
F

Please tell me: is the molecule CCOC(=O)c1ccc(O)cc1 [ethyl-paraben] (10 µM) at or over 0.1 in terms of morphology score?
F

Please tell me: is the molecule CNC(=O)c1ccc2cc([C@@]3(O)CCn4cncc43)ccc2c1 [orteronel] (10 µM) at or over 0.1 in terms of morphology score?
F

* * *

- Test system: Vero E6 infected with SARS-CoV-2
- protocol: inhibition of SARS-CoV-2 cytopathic effect; higher = more antiviral protection, active = above 15
- study.conditions: 10000 nM; 48 h
Give one outcome, nothing more. List: 1 for active, -1 for inactive

[[record]]
compound = "c1ccc2c(c1)CCC[C@H]2Nc1nc2ccccc2[nH]1"
measurement_target = "Vero E6 infected with SARS-CoV-2"
discrete_label = -1

[[record]]
compound = "NC(N)=Nc1nc(CSCC/C(N)=N/S(N)(=O)=O)cs1"
measurement_target = "Vero E6 infected with SARS-CoV-2"
discrete_label = -1

[[record]]
compound = "O=C(N/N=C/c1ccc([N+](=O)[O-])o1)c1cc([N+](=O)[O-])cc([N+](=O)[O-])c1O"
measurement_target = "Vero E6 infected with SARS-CoV-2"
discrete_label = -1

[[record]]
compound = "Nc1nc(=O)c2sc(=O)n([C@@H]3O[C@H](CO)[C@@H](O)[C@H]3O)c2[nH]1"
measurement_target = "Vero E6 infected with SARS-CoV-2"
discrete_label = -1

[[record]]
compound = "O=C(NCCN1CCC2(CC1)C(=O)NCN2c1cccc(F)c1)c1ccc2ccccc2c1"
measurement_target = "Vero E6 infected with SARS-CoV-2"
discrete_label = 1


Record request — test call for CCCCCCCCCCC(O)C1C=CC2C(=O)N(c3ccccc3)C(=O)C2N1Nc1ccc([N+](=O)[O-])cc1 (stereo unspecified)
-1

Record request — test call for CC(CNS(=O)(=O)C(C)C)c1ccc(-c2ccc(C#N)cc2)cc1 (stereo unspecified)
-1

Record request — test call for `COC(=O)N[C@H](C(=O)N[C@@H](Cc1ccccc1)[C@@H](O)CN(Cc1ccc(-c2ccccn2)cc1)NC(=O)[C@@H](NC(=O)OC)C(C)(C)C)C(C)(C)C`
-1

Record request — test call for CC(C[N+](C)(C)C)OC(N)=O (stereo unspecified)
-1

Record request — test call for `O=C(N[C@H]1CN2CCC1CC2)c1cc2cccc(Cl)c2s1`
-1

Record request — test call for CC(C)(C)NCC(O)c1ccc(O)c(CO)c1 (stereo unspecified)
-1
